In this section we review reported bioavailability values for a set of molecules.
- Experiment: Oral bioavailability in rat at 1 hr (dose 0.5 mg/kg i.v.)
- Assay type: ADME, organism-based
- Experimental Parameters: in vivo, 1 mg/kg
Measured Property: bioavailability (%)

>>> recorded_value("CCCC(CCC)n1cc2c3c(nc(C)nc31)N(c1ccc(C(F)(F)F)cc1C(F)(F)F)CC2")
33
>>> recorded_value("CCCC(CCC)N1CC2CCN(c3ccc(Cl)cc3Cl)c3nc(C)nc1c32 (stereo in doubt; 2ac)")
14
>>> recorded_value("CCCC(CCC)N1CC2CCN(c3ccc(C(F)(F)F)cc3C(F)(F)F)c3nc(C)nc1c32 (stereo in doubt; 2ad)")
36
>>> recorded_value("CCCC(CCC)N1CCC2CN(c3ccc(Cl)cc3Cl)c3nc(C)nc1c32 (centres undefined)")
31

* * *

- Experiment: Plasma clearance at 1 hr after a intravenous dose 0.5 mg/kg in rats
- Assay type: ADME, organism-based
- Parameters: dose 0.5 mg/kg, route intravenous
- Experimental Parameters: rat
In this section we review reported clearance values for a set of molecules.
Measured Property: clearance

>>> recorded_value("CCCC(CCC)N1CC2CCN(c3ccc(Cl)cc3Cl)c3nc(C)nc1c32 (stereo in doubt; 2ac)")
"32 mL/min/kg"
>>> recorded_value("CCCC(CCC)N1CC2CCN(c3ccc(C(F)(F)F)cc3C(F)(F)F)c3nc(C)nc1c32 (stereo in doubt; 2ad)")
"15 mL/min/kg"
>>> recorded_value("CCCC(CCC)n1cc2c3c(nc(C)nc31)N(c1ccc(C(F)(F)F)cc1C(F)(F)F)CC2")
"10 mL/min/kg"
>>> recorded_value("CCCC(CCC)N1CCC2CN(c3ccc(Cl)cc3Cl)c3nc(C)nc1c32 (centres undefined)")
"31 mL/min/kg"
